System: UACC-257 melanoma
ASSAY METHOD TEXT: NCI tumour cell line growth inhibition, 48 h
Reported TGI values are given for each entry in this list.

MOLECULE	TGI
COc1ccc(OC)c(NCC(=O)n2nc(/C=C\c3ccc(O)c(OC)c3)cc2/C=C\c2ccc(O)c(OC)c2)c1	14.8 µM
CC1=N/C(=C\c2ccc(/C=C3/N=C(C)OC3=O)cc2)C(=O)O1	> 100 µM
CCN=c1sc2c(n1NC(=O)c1cc3ccc1CCc1ccc(cc1)CC3)C(=O)c1ccccc1C2=O	1.07 µM
CCc1ccccc1NC(=O)c1cccc([N+](=O)[O-])c1O	77 µM
OC1(c2ccc(Cl)c(C(F)(F)F)c2)CCN(CCCC(c2ccc(F)cc2)c2ccc(F)cc2)CC1	1.51 µM
O=c1ccc2ccc(S)cc2o1	> 100 µM
CN(C)c1nc(Oc2nc(N(C)C)nc(N(C)C)n2)nc(N(C)C)n1	> 100 µM
COc1cc2ccc3c4cc(OC)c(OC)cc4c[n+](C)c3c2cc1O	> 100 µM
Cc1ccc(S(=O)(=O)OCC/C(=C\[Si](C)(C)C)c2ccccc2)cc1	> 100 µM
CCNc1nc(O)c(/C=C2\C=Nc3ncccc32)s1	15.5 µM
Cc1ccc2c(c1C)C(=O)C1(Cc3cc4c(cc3C1=O)CCC4)C2 (centres undefined)	> 100 µM
O=C1NC(=O)c2c1n(Cc1ccccc1)c(=O)n2Cc1ccccc1	> 100 µM
CO/N=C1\CC(NC(=O)C(F)(F)F)c2ccsc21 (centres undefined)	> 100 µM
CC(C)NC(=O)OCc1c(COC(=O)NC(C)C)n(C)c2c1ccc1sccc12	39.5 µM
CC(=O)NNc1nc(C)c(C(=O)NNC(=O)C(=O)Nc2ccc([N+](=O)[O-])cc2[N+](=O)[O-])s1	> 100 µM
CCCCCOc1ccc(/C=N/Nc2cc(C)nc3ccc(Cl)cc23)cc1	3.27 µM
O=C(NC1C(=O)NNC1c1cccc([N+](=O)[O-])c1)c1ccccc1 (centres undefined)	> 100 µM
COC(=O)/C=C(\C)CC/C=C(\C)CCC1OC1(C)C (centres undefined)	23.3 µM
O=C1C=CC2(O[C@H](c3ccccc3)[C@@H](c3ccccc3)O2)[C@H](Sc2ccccc2O)C1	1.71 µM
Cc1c(C)n(-c2ccccc2)c2nc(S(C)=O)nc(S(C)=O)c12 (centres undefined)	25.9 µM
COc1ccc(CNc2cnc3ccc(N)cc3n2)cc1	> 100 µM
CN(C)CCn1c(=O)c2ccc(NCCCN(C)CCCNc3ccc4c(=O)n(CCN(C)C)c(=O)n5c6ccc(O)cc6c(=O)c3c45)c3c(=O)c4cc(O)ccc4n(c1=O)c23	1.23 µM
CCn1c2c(c3ccccc3c1=O)C(=O)c1ccccc1-2	> 100 µM
COC(=O)[C@]1(C)CCC[C@@]2(C)C1CC[C@]13C=C(C(C)C)[C@H](CC21)CC3(Cl)C#N (some centres undefined)	> 100 µM
Cc1ccccc1-c1nc2c(N)nc(N)nc2nc1N	> 100 µM
COc1cc(CNc2nc3cc(N)cc(N)c3nc2-c2ccccc2)cc(OC)c1	> 100 µM
CCc1c(O)cc(=O)oc1-c1ccc(OC)c(OC)c1	> 100 µM
O=[N+]([O-])c1cccc(C2=NN(c3ccccc3)C3c4cc(Br)ccc4OCC23)c1 (centres undefined)	> 100 µM
Cc1nc(N)c(N2CCN(C#N)CC2)c(=O)[nH]1	> 100 µM
O=c1[nH]c(NCc2ccncc2)nc2nc[nH]c12	> 100 µM
COCC([C@@H](O)C(O)C(=O)NCC[C@@H](C)c1nc(/C=C/CC2OC3(C[C@H](O)C2C)OC(C(C[C@H](O)C(C)[C@H](O)C(C)/C=C(C)/C(C)=C/C=C/C(C)=C/C#N)OC)[C@@H](OP(=O)(O)O)C3(C)C)co1)N(C)C (some centres undefined)	0.00232 µM
Cc1cc([N+](=O)[O-])c(C)c2c1[nH]c1ccc(Cl)cc12	> 100 µM
CC1(C)N=C(N)N=C(N)N1c1ccc(CCC(=O)Nc2ccc(S(=O)(=O)F)cc2)cc1	> 100 µM
COc1ccc2ccc3oc(=O)c(C)cc3c2c1	> 100 µM
CN(C)CCCC1(c2ccc(F)cc2)OCc2cc(-c3cccc4[nH]ccc34)ccc21 (centres undefined)	3.18 µM
O=c1c2c3c(sc2[nH]c(=S)n1-c1ccccc1)CCCc1ccc([N+](=O)[O-])cc1-3	> 100 µM
C[C@]12CC[C@H]3[C@@H](CCC4=CC(=O)CC[C@@]43C)[C@@H]1CC[C@@H]2c1csc(N)n1	13 µM
COc1cc([C@@H]2c3cc4c(cc3[C@@H](NC(=O)c3ccc(C#N)cc3)C3COC(=O)[C@@H]32)OCO4)cc(OC)c1O (some centres undefined)	20.1 µM
C[C@]12Cc3cn[nH]c3C(=O)C1CC[C@@H]1C2CC[C@@]2(C)C1CC[C@@H]2O (some centres undefined)	> 100 µM

----------
Test system: HOP-62 NSCLC
ASSAY METHOD TEXT: NCI tumour cell line growth inhibition, 48 h; in the data active means GI50 below about 0.43 µM; inactive means the rest
Outcomes: 1 (active), -1 (inactive)

COMPOUND	CLASSIFICATION
O=C(NCCNCCO)c1ccc2c(c1)oc1cc3ccccc3c(=O)n12	-1
COc1ccc(C(=O)c2cc(OC)c(OC)c(OC)c2OC)cc1O	-1
CN[C@@H](C)C(=O)N[C@H]1CN(S(=O)(=O)c2cccc(S(=O)(=O)N3CC[C@H]4CC[C@@H](C(=O)NC(c5ccccc5)c5ccccc5)N4C(=O)[C@@H](NC(=O)[C@H](C)NC)C3)c2)CC[C@H]2CC[C@@H](C(=O)NC(c3ccccc3)c3ccccc3)N2C1=O	-1
Cc1c2ccnc(C(N)=O)c2c(C)c2c1[nH]c1ccccc12	-1
CSC1=Nc2c(c(C)c(C)n2COC(CO)CO)C2=NC(=O)CN12	-1
O=C(OCc1ccc2c(Br)cc(Br)c(O)c2n1)c1cc2ccccc2[nH]1	-1
COc1ccc(OC)c(NCC(=O)n2nc(/C=C\c3ccc(O)c(OC)c3)cc2/C=C\c2ccc(O)c(OC)c2)c1	-1
Nc1ncnc2c1N=C(c1ccc3c(c1)OCO3)CC(c1ccc(Cl)cc1)N2 (centres undefined)	-1
O=C(/C=C/C12c3ccccc3C(c3ccccc31)C1C(=O)NC(=O)C12)c1ccccn1 (centres undefined)	-1
COc1ccc(OC)c(/C=C/c2nc(=S)n(-c3ccc(Cl)cc3)[nH]2)c1	-1
c1ccc(-c2[nH]ncc2-c2ccnc(-c3ccc(OCCn4ccnc4)cc3)c2)nc1	-1
CCNc1nc(O)c(/C=C2\C=Nc3ncccc32)s1	-1
COc1ccc2c(c1)C(=O)c1c-2c(Nc2ccccc2OC)nc2ccccc12	-1
CCn1cc(C(=O)O)c(=O)c2cc(F)c(N3CCN(S(=O)(=O)c4cccc5ccccc45)CC3)cc21	-1
COC(=O)OC1C(O[C@H]2C[C@H]3[C@@H]4CC=C5C[C@@H](O)CC[C@]5(C)[C@H]4CC[C@]3(C)[C@H]2[C@H](C)C(=O)CCC(C)C)OCC(O)C1OC1OCC(O)C(O)C1OC(=O)c1ccc(OC)cc1 (some centres undefined)	1
COC1N(C2CC(O)C(CO)O2)C(=O)NC(=O)C1(F)Br (centres undefined)	-1
COc1ccc2c(c1)c(-c1nc(-c3c[nH]c4ncccc34)cs1)cn2CCCN1CCOCC1	-1
COc1cc2c(cc1Nc1nc(N3CCc4ccccc43)c3cc[nH]c3n1)N(C(=O)CN(C)C)CC2	-1
N#Cc1nc2c(S(=O)(=O)c3ccc(Cl)cc3)c(N)n(Nc3cccc(Cl)c3)c2nc1C#N	1

----------
Test system: IGROV1 ovarian
ASSAY METHOD TEXT: NCI tumour cell line growth inhibition, 48 h; in the data active = GI50 below about 0.43 µM; inactive = the rest
Outcomes: label 1 (active), label 0 (inactive)

COMPOUND	SYSTEM UNDER TEST	CLASSIFICATION
O=C(NCCNCCO)c1ccc2c(c1)oc1cc3ccccc3c(=O)n12	IGROV1 ovarian	label 0
N#CC1c2ccccc2C=CN1C(=O)CCCl (stereo not drawn)	IGROV1 ovarian	label 0
O=C1NC(=N[C@@H](CO)c2ccccc2)S/C1=C\c1ccc2ncccc2c1	IGROV1 ovarian	label 0
COc1cc2nc(-c3ccc(Cl)cc3)cc(OCCCN3CCOCC3)c2cc1OC	IGROV1 ovarian	label 0
COC(=O)OC1C(O[C@H]2C[C@H]3[C@@H]4CC=C5C[C@@H](O)CC[C@]5(C)[C@H]4CC[C@]3(C)[C@H]2[C@H](C)C(=O)CCC(C)C)OCC(O)C1OC1OCC(O)C(O)C1OC(=O)c1ccc(OC)cc1 (stereo partly drawn)	IGROV1 ovarian	label 1
CCn1cc(C(=O)O)c(=O)c2cc(F)c(N3CCN(S(=O)(=O)c4cccc5ccccc45)CC3)cc21	IGROV1 ovarian	label 0
COC1N(C2CC(O)C(CO)O2)C(=O)NC(=O)C1(F)Br (stereo not drawn)	IGROV1 ovarian	label 0
COc1cc2c(cc1Nc1nc(N3CCc4ccccc43)c3cc[nH]c3n1)N(C(=O)CN(C)C)CC2	IGROV1 ovarian	label 0
